# Tested on: Staphylococcus aureus
# ASSAY_NOTES: Bacterial growth by Alamar Blue in Muller-Hinton broth
# Format: cell-based
# CONDITION_PARAMETERS: ~10 μM, 16-24 hours, Alamar Blue, read-out: % of the activities in the presence of ~10 μM compound, Staphylococcus aureus
METRIC_NAME: activity at 10 µM

> print(dat)
                                item.smiles  result
1    CCCCNC(=O)c1c(C)oc2c1C(=O)c1ccccc1C2=O  > 100%
2  Cc1oc2c(c1C(=O)N1CCOCC1)C(=O)c1ccccc1C2=O   75.8%
3  Cc1oc2c(c1C(=O)NC(C)(C)C)C(=O)c1ccccc1C2=O  > 100%
4  Cc1oc2c(c1C(=O)NCCCn1ccnc1)C(=O)c1ccccc1C2=O   38.1%

* * *

# System: PC9 (human lung adenocarcinoma cells, EGFR del 19 mutation and sensitive to gefitinib)
# ASSAY_NOTES: SRB cytotoxicity assay, PC9
# CONDITION_PARAMETERS: 72 h
METRIC_NAME: IC50

> print(dat)
                                item.smiles  metric.name  result
1  Cc1oc2c(c1C(=O)NCCCn1ccnc1)C(=O)c1ccccc1C2=O         IC50   37 nM
